Provenance of the data: paper PMC8560999

# study.target: AbHpaI•Co^2+
# test.protocol: Isothermal titration calorimetry (MicroCal PEAQ-ITC) of 10 mM pyruvate into 40 uM apo-AbHpaI mixed with metal ion at 10 times its Kd, 50 mM HEPES pH 7.0, 25 °C, one-site binding model.
reported.property: Kd (µM)
Answers are plain numbers, in µM.

**Q:** GET /values?readout=Kd&item= CC(=O)C(=O)O [Pyruvate, pyruvate]
**A:** 320

----------
# study.target: AbHpaI•Mn^2+
# test.protocol: Isothermal titration calorimetry (MicroCal PEAQ-ITC) of 10 mM pyruvate into 40 uM apo-AbHpaI mixed with metal ion at 10 times its Kd, 50 mM HEPES pH 7.0, 25 °C, one-site binding model.
reported.property: Kd
Hi, when you answer, please include the unit after the number. Thanks!

**Q:** GET /values?readout=Kd&item= CC(=O)C(=O)O [Pyruvate, pyruvate]
**A:** 1320 µM
